Listing of recorded DC50 by entry.
biological target: Androgen Receptor (Homo sapiens, UniProt P10275); construct: endogenous in cells; host or cells: VCaP cells; experiment: Androgen Receptor ELISA assay (PathScan AR ELISA) in VCaP cells: AR degradation, Dmax and DC50; format: cell-based; conditions: VCaP cells; Table 35; read-out: VCaP DC50
Sequence (P10275 whole entry): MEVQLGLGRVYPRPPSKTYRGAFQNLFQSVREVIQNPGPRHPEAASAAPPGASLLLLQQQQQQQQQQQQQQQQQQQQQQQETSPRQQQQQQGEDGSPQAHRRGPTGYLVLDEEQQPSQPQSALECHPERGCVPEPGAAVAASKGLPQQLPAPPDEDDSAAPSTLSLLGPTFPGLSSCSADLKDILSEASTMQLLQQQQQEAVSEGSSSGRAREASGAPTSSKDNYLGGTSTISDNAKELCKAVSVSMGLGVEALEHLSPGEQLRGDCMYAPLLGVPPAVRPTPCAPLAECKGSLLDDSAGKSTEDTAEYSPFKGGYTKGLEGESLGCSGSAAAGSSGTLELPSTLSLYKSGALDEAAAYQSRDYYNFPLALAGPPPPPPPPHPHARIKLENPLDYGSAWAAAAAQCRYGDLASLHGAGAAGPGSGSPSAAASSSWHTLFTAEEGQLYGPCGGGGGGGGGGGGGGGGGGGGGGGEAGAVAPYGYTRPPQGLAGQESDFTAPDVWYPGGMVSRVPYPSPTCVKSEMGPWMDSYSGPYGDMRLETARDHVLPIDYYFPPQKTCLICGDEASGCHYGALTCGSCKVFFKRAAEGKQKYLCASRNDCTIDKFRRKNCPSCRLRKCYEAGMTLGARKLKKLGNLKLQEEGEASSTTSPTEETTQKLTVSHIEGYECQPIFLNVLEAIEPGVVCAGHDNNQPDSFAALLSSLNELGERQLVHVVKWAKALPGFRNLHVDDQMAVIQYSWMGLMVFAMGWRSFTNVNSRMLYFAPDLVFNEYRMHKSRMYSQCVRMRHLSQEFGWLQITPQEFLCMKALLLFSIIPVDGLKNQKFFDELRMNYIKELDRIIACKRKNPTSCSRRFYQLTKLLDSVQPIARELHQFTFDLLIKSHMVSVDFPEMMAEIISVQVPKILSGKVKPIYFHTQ

Example results:
smi: Cc1ncsc1-c1ccc(CNC(=O)[C@@H]2C[C@@H](O)CN2C(=O)[C@@H](NC(=O)COCCN2CCN(c3ccc(C(=O)N[C@H]4C(C)(C)[C@H](Oc5ccc(C#N)c(Cl)c5)C4(C)C)cc3)CC2)C(C)(C)C)cc1
result: < 50 nM
--
smi: CC(C)(C)[C@H](NC(=O)COCCCCCNc1ccc(C(=O)N[C@H]2C(C)(C)[C@H](Oc3ccc(C#N)c(Cl)c3)C2(C)C)cc1)C(=O)N1C[C@H](O)C[C@H]1C(=O)NCc1ccc(-n2cnnn2)cc1
result: < 50 nM
--
smi: Cc1ncsc1-c1ccc(CNC(=O)[C@@H]2C[C@@H](O)CN2C(=O)[C@@H](NC(=O)COCCCCCS(=O)(=O)c2ccc(C(=O)N[C@H]3C(C)(C)[C@H](Oc4ccc(C#N)c(Cl)c4)C3(C)C)cc2)C(C)(C)C)cc1
result: < 50 nM

Moving on to the next compound.
Name the reported DC50 value associated with the compound CC(C)(C)[C@H](NC(=O)COCCCCOc1ccc(-c2ccc(N3C(=S)N(c4cnc(C#N)c(C(F)(F)F)c4)C(=O)C3(C)C)cc2)cc1)C(=O)N1C[C@H](O)C[C@H]1C(=O)NCc1ccc(C#N)cc1
< 50 nM
